Cited source: patent US7208505B2

target: human β3 adrenergic receptor (Homo sapiens, UniProt P13945); construct: expressed in transfected cells; assay: whole cell receptor coupled c-AMP assay (Emax relative to isoproterenol); assay type: cell-based; details: % intrinsic activity: maximal response divided by isoproterenol maximal response times 100; transfected CHO cells; average of at least 3 runs
Sequence (P13945 whole entry): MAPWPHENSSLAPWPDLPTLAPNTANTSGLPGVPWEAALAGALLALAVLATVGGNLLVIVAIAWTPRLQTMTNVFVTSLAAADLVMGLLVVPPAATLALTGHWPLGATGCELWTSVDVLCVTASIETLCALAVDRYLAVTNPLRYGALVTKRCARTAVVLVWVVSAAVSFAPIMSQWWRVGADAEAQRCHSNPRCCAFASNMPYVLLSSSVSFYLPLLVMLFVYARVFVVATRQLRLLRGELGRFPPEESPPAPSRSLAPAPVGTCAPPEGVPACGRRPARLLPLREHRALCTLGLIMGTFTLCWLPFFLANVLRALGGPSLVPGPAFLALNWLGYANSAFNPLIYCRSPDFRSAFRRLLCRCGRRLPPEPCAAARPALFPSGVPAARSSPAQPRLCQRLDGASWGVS
observation-type: Emax (%) ± SEM

CC(C)(Cc1c[nH]c2c(OCCNS(C)(=O)=O)cccc12)NC[C@H](O)COc1ccccc1-c1cccs1    73.8
CCOC(=O)c1cccc(-c2cccc3c(CC(C)(C)NC[C@H](O)COc4ccccc4-c4ccon4)c[nH]c23)c1    73.1
CC(C)(Cc1c[nH]c2c(OCC#N)cccc12)NC[C@H](O)COc1ccccc1-c1ncco1.O=C(O)C(F)(F)F    82.2
COC(=O)CCc1cccc2c(CC(C)(C)NC[C@H](O)COc3ccccc3-c3cccs3)c[nH]c12    79.3
